Target: CB1 receptor (Mus musculus, UniProt P47746)
Sequence (P47746 whole entry): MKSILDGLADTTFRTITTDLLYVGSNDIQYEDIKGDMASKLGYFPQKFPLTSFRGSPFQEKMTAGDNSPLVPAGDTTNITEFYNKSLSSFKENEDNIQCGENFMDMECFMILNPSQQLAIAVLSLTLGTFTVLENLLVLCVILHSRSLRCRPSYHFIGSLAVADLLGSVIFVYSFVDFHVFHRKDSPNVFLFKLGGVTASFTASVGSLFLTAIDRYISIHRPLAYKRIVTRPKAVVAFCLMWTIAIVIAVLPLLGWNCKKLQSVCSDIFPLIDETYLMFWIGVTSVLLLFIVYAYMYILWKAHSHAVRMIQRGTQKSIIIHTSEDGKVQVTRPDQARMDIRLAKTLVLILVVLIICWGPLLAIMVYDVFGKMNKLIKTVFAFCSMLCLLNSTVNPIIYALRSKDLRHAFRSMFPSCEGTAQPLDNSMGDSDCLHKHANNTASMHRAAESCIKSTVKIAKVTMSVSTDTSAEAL
Assay: [35S]GTP-γ-S binding assay in mouse cerebellar membranes, CP55,940-stimulated
Conditions: CP55,940 (100 nM) stimulation, mean (95% confidence interval)
observable: pIC50
Scale for pIC50: -log10 of concentration given in mol/L; no unit attached.

# compound, observable, observed
records = [
    ("O=C(Nc1ccc(Cl)cc1)Nc1cccc(-c2ccc(F)cc2)c1 [Compound 34]", "pIC50", 6.82),
    ("COc1cccc(-c2cccc(NC(=O)Nc3ccc(Cl)cc3)c2)c1 [Compound 23]", "pIC50", 6.08),
]

Q. Name the recorded pIC50 for O=C(Nc1ccc(Cl)cc1)Nc1cccc(-c2cccc(N3CCCC3)n2)c1 [Compound B, reference compound] .
A. 6.99

Q. Name the recorded pIC50 for O=C(Nc1ccc(Cl)cc1)Nc1cccc(-c2ccc3c(c2)OCO3)c1 [Compound 26] .
A. 6.21

Q. Name the recorded pIC50 for Cc1ccc(-c2cccc(NC(=O)Nc3ccc(Cl)cc3)c2)s1 [Compound 50] .
A. 6.43

---

Assay: Metabolic stability in rat liver microsomes
Assay type: in vitro ADME
Conditions: pH 7.4, 0.5 mg/mL, NADPH, 37° C., mean ± S.E.M.
observable: half-life

Q. Name the recorded half-life for O=C(Nc1ccc(Cl)cc1)Nc1cccc(-c2ccc(F)cc2)c1 .
A. > 5 h

---

Assay: Metabolic stability in rat liver microsomes
Type: in vitro ADME
Settings: pH 7.4, 0.5 mg/mL, NADPH, 37° C., mean ± S.E.M., read-out: Clearance
observable: microsomal CLint

Q. Name the recorded microsomal CLint for O=C(Nc1ccc(Cl)cc1)Nc1cccc(-c2ccc(F)cc2)c1 .
A. < 4.6 µL/min/mg

---

The entries below are paired with their reported CB1 calcium assay Agonist screen (% CP55, 940 Emax).
Target: human CB1 receptor (Homo sapiens)
Construct: host or cells: CHO-RD-HGA16 cells (CHO cells overexpressing promiscuous Galpha16)
Sequence (P21554 whole entry): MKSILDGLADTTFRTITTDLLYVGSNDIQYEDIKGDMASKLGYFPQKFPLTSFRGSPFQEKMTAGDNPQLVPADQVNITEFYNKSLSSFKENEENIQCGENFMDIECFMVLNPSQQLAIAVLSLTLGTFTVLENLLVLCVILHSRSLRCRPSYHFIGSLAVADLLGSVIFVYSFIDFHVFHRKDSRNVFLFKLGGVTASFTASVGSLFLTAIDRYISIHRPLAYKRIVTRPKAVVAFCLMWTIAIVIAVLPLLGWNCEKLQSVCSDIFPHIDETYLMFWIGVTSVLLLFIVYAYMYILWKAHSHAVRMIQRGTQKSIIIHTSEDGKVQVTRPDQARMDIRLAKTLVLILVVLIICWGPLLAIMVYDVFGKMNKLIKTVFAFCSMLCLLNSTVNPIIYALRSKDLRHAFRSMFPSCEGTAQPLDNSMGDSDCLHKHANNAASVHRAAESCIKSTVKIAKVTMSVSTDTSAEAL
Assay: CB1 calcium mobilization assay, agonist screen
Format: cell-based
Details: Table 1; 10,000 nM final concentration; mean ± SD

# compound, observed
measured = [
    ("Cc1ccccc1-c1cccc(NC(=O)Nc2ccc(Cl)cc2)c1 [Compound 28]", "4.4 ± 2.7 % CP55, 940 Emax"),
    ("O=C(Nc1ccc(Cl)cc1)Nc1cccc(N2CCC(F)(F)CC2)c1 [Compound 81]", "14.0 ± 0.6 % CP55, 940 Emax"),
    ("O=C(Nc1ccc(Cl)cc1)Nc1cccc(-c2ccccn2)c1 [Compound 18]", "8.8 ± 3.1 % CP55, 940 Emax"),
    ("COc1cccc(-c2cccc(NC(=O)Nc3ccc(Cl)cc3)c2)n1 [Compound 15]", "2.4 ± 0.2 % CP55, 940 Emax"),
    ("O=C(Nc1ccc(Cl)cc1)Nc1cccc(-c2ccc3ccccc3n2)c1 [Compound 43]", "4.5 ± 0.7 % CP55, 940 Emax"),
]

Q. Name the recorded CB1 calcium assay Agonist screen (% CP55, 940 Emax) for O=C(Nc1ccc(Cl)cc1)Nc1cccc(N2CCCCCC2)c1 [Compound 83] .
A. 18.6 ± 1.1 % CP55, 940 Emax

Q. Name the recorded CB1 calcium assay Agonist screen (% CP55, 940 Emax) for O=C(Nc1ccc(Cl)cc1)Nc1cccc(-c2cccc(-c3ccccc3)c2)c1 [Compound 38] .
A. 0.5 ± 0.2 % CP55, 940 Emax

Q. Name the recorded CB1 calcium assay Agonist screen (% CP55, 940 Emax) for CN(C)c1cccc(NC(=O)Nc2ccc(Cl)cc2)c1 [Compound 85] .
A. 14.5 ± 4.9 % CP55, 940 Emax

Q. Name the recorded CB1 calcium assay Agonist screen (% CP55, 940 Emax) for O=C(Nc1ccc(Cl)cc1)Nc1cccc(-c2ccc(Cl)c(Cl)c2)c1 [Compound 32] .
A. 10.4 ± 2.1 % CP55, 940 Emax
